- target system: Serine/threonine-protein kinase ULK1 (Homo sapiens); further: in the data inactive means no Kd found up to 30 µM
- Sequence (O75385 whole entry): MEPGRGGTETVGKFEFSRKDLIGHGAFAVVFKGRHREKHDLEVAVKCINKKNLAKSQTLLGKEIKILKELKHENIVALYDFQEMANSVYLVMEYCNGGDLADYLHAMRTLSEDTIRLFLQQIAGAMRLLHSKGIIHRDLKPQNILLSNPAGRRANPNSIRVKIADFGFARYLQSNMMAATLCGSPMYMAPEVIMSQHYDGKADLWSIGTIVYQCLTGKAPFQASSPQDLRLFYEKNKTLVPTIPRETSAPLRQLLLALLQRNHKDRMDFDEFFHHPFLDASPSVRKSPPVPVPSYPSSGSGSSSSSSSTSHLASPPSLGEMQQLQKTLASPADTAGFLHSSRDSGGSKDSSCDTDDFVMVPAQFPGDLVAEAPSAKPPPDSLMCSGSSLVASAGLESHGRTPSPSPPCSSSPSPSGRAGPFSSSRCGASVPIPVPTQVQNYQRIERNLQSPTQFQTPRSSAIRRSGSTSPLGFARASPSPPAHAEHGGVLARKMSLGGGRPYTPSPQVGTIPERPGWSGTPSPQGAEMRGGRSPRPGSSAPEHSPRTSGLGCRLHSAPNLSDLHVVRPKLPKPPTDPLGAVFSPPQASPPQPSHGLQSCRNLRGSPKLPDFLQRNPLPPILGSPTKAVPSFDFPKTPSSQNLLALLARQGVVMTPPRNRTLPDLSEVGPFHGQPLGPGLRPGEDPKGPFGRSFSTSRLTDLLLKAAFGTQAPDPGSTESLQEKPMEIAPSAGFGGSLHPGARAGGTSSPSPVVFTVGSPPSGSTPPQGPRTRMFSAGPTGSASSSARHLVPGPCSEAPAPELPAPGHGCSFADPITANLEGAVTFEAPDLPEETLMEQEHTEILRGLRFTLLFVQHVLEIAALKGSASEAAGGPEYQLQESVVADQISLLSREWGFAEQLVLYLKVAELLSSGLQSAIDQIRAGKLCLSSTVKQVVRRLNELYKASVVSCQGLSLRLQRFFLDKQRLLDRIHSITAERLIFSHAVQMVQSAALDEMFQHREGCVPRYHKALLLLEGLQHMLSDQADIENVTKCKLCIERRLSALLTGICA
Active and inactive are the calls of the source.
Valid outcomes are listed here; reply with one: active, inactive

Give the logged outcome of this assay for the following molecule: COc1ccc(S(=O)(=O)N(C(C)=O)c2ccccc2/C=C/c2cc[n+]([O-])cc2)cc1 [HMN-214]
inactive

Continuing:
Can you look up the reported call for COc1ncc(-c2ccc3nccc(-c4ccnnc4)c3c2)cc1NS(=O)(=O)c1ccc(F)cc1F [OMIPALISIB] for me?
inactive

Could you check what this test reported for CCNC(=O)C#Cc1ccc2c(c1)NC(=O)/C2=C(\Nc1ccc(CN(C)C)cc1)c1ccccc1 ?
inactive

What outcome does the record of this test show for CO[C@H]1C[C@@H]2CC[C@@H](C)[C@@](O)(O2)C(=O)C(=O)N2CCCC[C@H]2C(=O)O[C@H]([C@H](C)C[C@@H]2CC[C@@H](OP(C)(C)=O)[C@H](OC)C2)CC(=O)[C@H](C)/C=C(\C)[C@@H](O)[C@@H](OC)C(=O)[C@H](C)C[C@H](C)/C=C/C=C/C=C/1C [RIDAFOROLIMUS] ?
inactive

Hi team, can someone confirm the assay call for Cn1cc(-c2cnn3c(N)c(Br)c([C@@H]4CCCNC4)nc23)cn1 [SCH-900776] ?
inactive

# outcome recorded in this test, key = CN1CCN(CCOc2cc(OC3CCOCC3)c3c(Nc4c(Cl)ccc5c4OCO5)ncnc3c2)CC1 [SARACATINIB]
inactive

Entry C[C@@H](N)c1ccc(C(=O)Nc2ccnc3[nH]ccc23)cc1 [Y-39983] : call = ?
inactive

I would be grateful if you could indicate the recorded call for Cn1cc(-c2cnc3ccc4ccc(CS(=O)(=O)NCc5ccccn5)cc4c(=O)c3c2)cn1 [MK-8033] .
inactive

Please state the recorded outcome for this molecule: O=C(Nc1c[nH]nc1-c1nc2cc(CN3CCOCC3)ccc2[nH]1)NC1CC1 [AT-9283]
inactive

State the result this test recorded for COCC(=O)NC/C=C/c1ccc2ncnc(Nc3ccc(Oc4ccc(C)nc4)c(C)c3)c2c1 [CP-724714] .
inactive

GET /call?item= Cc1nc(NC(=O)N2CCC[C@H]2C(N)=O)sc1-c1ccnc(C(C)(C)C(F)(F)F)c1 [ALPELISIB] returns the recorded outcome of this test.
inactive

###

- target system: Serine/threonine-protein kinase ICK (Homo sapiens); further: in the data inactive means no Kd found up to 30 µM
- Sequence (Q9UPZ9 whole entry): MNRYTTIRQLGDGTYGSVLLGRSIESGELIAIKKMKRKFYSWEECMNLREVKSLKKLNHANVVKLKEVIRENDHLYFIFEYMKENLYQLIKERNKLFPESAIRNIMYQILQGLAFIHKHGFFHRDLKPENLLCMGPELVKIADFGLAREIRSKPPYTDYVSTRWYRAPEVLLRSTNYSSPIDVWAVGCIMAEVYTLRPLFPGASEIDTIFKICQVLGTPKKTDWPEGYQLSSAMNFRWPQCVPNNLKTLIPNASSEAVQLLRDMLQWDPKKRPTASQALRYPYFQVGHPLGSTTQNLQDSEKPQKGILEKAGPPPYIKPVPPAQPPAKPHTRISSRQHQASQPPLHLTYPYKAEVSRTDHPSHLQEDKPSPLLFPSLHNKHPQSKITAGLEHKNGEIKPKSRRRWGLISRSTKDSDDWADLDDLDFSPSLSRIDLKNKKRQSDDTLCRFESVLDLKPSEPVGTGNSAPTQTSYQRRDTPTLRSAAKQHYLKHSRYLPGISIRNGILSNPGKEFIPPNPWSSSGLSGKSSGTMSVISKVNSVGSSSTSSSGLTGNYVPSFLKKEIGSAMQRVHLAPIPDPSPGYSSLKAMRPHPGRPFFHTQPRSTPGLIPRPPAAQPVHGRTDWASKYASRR
Calls of active or inactive are those of the source.
Can you answer with just one of these options? 1 (yes) = active, 0 (no) = inactive

See these solved cases before continuing.
Tell me the recorded outcome of this test for Cn1cc(-c2cnc3ccc4ccc(CS(=O)(=O)NCc5ccccn5)cc4c(=O)c3c2)cn1 [MK-8033] .
0 (no)

Recorded test call requested for COc1c(OCCCN2CCOCC2)ccc2c1N=C(NC(=O)c1cnc(N)nc1)N1CCN=C21 [COPANLISIB]
0 (no)

Could you please tell me the result logged for CC(C)(C)c1nc(-c2cccc(NS(=O)(=O)c3c(F)cccc3F)c2F)c(-c2ccnc(N)n2)s1 [DABRAFENIB] in this assay?
0 (no)

***
Answer briefly: the call reported for C#Cc1cccc(Nc2ncnc3cc(OC)c(OCCCCCCC(=O)NO)cc23)c1 [CUDC-101] in this assay.
0 (no)

Any idea what this test logged for CNC(=O)c1nn(C)c2c1C(C)(C)Cc1cnc(Nc3ccc(N4CCN(C)CC4)cc3)nc1-2 [MILCICLIB] ?
1 (yes)
